Biological target: T1, c-JMJ703, catalytic core domain of JMJ703 (amino acids 139 to 498) (rice, UniProt Q53WJ1 139-498)
T1 construct: JMJ703, rice JmjC domain-containing histone H3K4 demethylase; amino acids 139 to 498, covering the JmjN domain (A139-K199), long beta-hairpin (D200-T271), mixed domain (L272-V377) and JmjC domain (L378-A498); Cloned into pET-28a with BamHI and XhoI; also called J3NC; catalytic core of JMJ703; source: E. coli Rosetta (DE3), purified (Ni-NTA, thrombin cleavage, Hitrap Q anion exchange)
T1 sequence (Q53WJ1 139-498): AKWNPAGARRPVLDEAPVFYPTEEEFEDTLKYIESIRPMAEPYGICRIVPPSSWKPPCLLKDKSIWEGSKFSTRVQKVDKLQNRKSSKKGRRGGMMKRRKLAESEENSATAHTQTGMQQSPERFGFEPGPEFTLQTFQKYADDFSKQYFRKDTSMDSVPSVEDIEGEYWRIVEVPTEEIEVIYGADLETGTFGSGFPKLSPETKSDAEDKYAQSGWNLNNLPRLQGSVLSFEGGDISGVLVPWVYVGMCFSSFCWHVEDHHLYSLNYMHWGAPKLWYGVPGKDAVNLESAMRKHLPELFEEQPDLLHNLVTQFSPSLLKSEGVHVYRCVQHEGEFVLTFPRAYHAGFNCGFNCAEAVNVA
Test: SPR; BIAcore 3000, 25°C; c-JMJ703 amine-coupled to a CM5 chip; peptides injected at various concentrations at 10 µL/min for 2 min in 10 mM HEPES pH 7.5, 150 mM NaCl, 0.005% Tween20; reference flow cell subtracted
Conditions: both partners purified
Where no end group is shown, it is not given here. Me3 = trimethyl
READOUT_NAME: pKd
Numbers only, as −log10 of the molar value.

Looking up ARTK(Me3)QTARKS [H3K4me3 peptide (ARTKme3QTARKS)] , I see its pKd listed as 4.52

// data source = paper PMC3554631
